composite z-score values, listed per item
test-details: probe aLAP1 signal on lysate-treated microarray – cell lysate, small-molecule microarray, COS7 lysate, primary screen (AID 1124);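 also: lysate comes from COS7 cells expressing LAP1 and is applied at 0.3 µg/mL; score merges spot fluorescence near 667 nm with signal-to-noise over triplicate slides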
test-parameters: probe aLAP1, fluorescence, higher = more signal

structure-as-smiles | composite z-score
O=C(O)[C@@H]1[C@@H]2C(=O)N(c3ccccc3)C(=O)[C@@H]2C[C@@H]1Sc1ccccc1 | 0.627
CCOC(=O)C1=C[C@@H](c2ccccc2)N(S(=O)(=O)c2ccc(C)cc2)[C@H]1c1ccc(OC)cc1 | 0.755
C=CC[C@@H](OC(=O)Nc1ccc(SC)cc1)c1ccc(O)c(F)c1 | 0.341
CC[C@@H]1C=C(C(=O)O)[C@H](c2ccccc2)N1S(=O)(=O)c1ccc(C)cc1 | 1.38
CCCCC=C[C@@H](NC(=O)OCc1ccccc1Cl)c1ccccc1 | 0.0357
